Reference source for all entries: paper PMC5540273

- Tested on: CDKL1
- condition_label: concentration: 1 μM,replicates: in singlicate; n = 1;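 note: KINOMEscan kinase panel screen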
Known %Inh of a selection of molecules
Mention the unit after the number when you answer.

Consider the reported %Inh for these molecules:
                                   molecule  endpoint  value_reported
0  COc1ccc(C[C@@H](CN)NC(=O)c2cc(Br)c(-c3ccnc4[nH]ccc34)s2)cc1.Cl.Cl [GSK1389063]      %Inh             80%
1  Cl.Cl.NC[C@H](Cc1ccc(C(F)(F)F)cc1)NC(=O)c1cc(Br)c(-c2ccnc3[nH]ccc23)s1 [GSK1487252]      %Inh              6%
2  CCn1c(-c2nonc2N)nc2c(C#CC(C)(C)O)nc(OCCN)cc21.Cl.Cl [GSK902056]      %Inh              0%
3  C[C@@H]1CCN(C(=O)CC#N)C[C@@H]1N(C)c1ncnc2[nH]ccc12      %Inh              3%
4  Nc1nc(Nc2ccccc2)cc(-c2ccc3c(N)n[nH]c3c2)n1 [GSK2225749]      %Inh              0%
5  Cc1n[nH]c2ccc(-c3cc(OC[C@@H](N)Cc4ccccc4)cnc3-c3ccoc3)cc12.O=C(O)C(F)(F)F.O=C(O)C(F)(F)F [GSK507358]      %Inh              6%

Reported %Inh for Cc1ccc(-n2nc(C(C)(C)C)cc2NC(=O)Nc2ccc(OCCN3CCOCC3)c3ccccc23)cc1 [GW839464] was 32%

Field %Inh (entry CCN(CC)CCOc1ccc(Nc2ncc3cc(-c4c(Cl)cccc4Cl)c(=O)n(C)c3n2)cc1 [SB-601273] ) reads 12%

====

- Test system: TESK1
- condition_label: concentration: 1 μM,replicates: in singlicate; n = 1
endpoint: %Inh

In [3]: df
Out[3]:
                                   molecule  value_reported
0  CNC(=O)c1ccccc1Sc1ccc2c(/C=C/c3ccccn3)n[nH]c2c1             15%
1  Cc1n[nH]c2ccc(-c3cc(OC[C@@H](N)Cc4ccccc4)cnc3-c3ccoc3)cc12.O=C(O)C(F)(F)F.O=C(O)C(F)(F)F             19%
2  CN(C)CC(O)COc1ccc(Nc2nccc(-c3cnn4nc(N5CCOCC5)ccc34)n2)cc1 (stereo not drawn)             10%
3  CCN(CC)CCOc1ccc(Nc2ncc3cc(-c4c(Cl)cccc4Cl)c(=O)n(C)c3n2)cc1           97.6%
4  Cc1cc2cn[nH]c2cc1-c1cccc2c(N)c(C(N)=O)nnc12              9%
5  CCN(CC)CCCCNc1ncc2cc(-c3c(Cl)cccc3Cl)c(NC(=O)NC(C)(C)C)nc2n1             48%
6   CC(C)Nc1cc(-c2ccc3c(N)n[nH]c3c2)nc(N)n1              0%
7  Cc1cc(C(=O)Nc2ccc(Oc3ccc4nc(NC(=O)C5CC5)cn4n3)cc2)nn1-c1ccccc1             16%
8  COc1ccc(C[C@@H](CN)NC(=O)c2cc(Br)c(-c3ccnc4[nH]ccc34)s2)cc1.Cl.Cl             20%
9  O=C(NCCNc1ccnc(NCc2ccc(F)cc2)n1)c1cc2ccccc2s1             44%

Reported TESK1 %Inh for item Cl.Cl.Nc1nc(-c2ccc3c(N)n[nH]c3c2)cc(N2CCCC(NC(=O)c3ccccc3)C2)n1 (stereo not drawn) was 98.1%

Record for Cc1ccc2c(-c3ccncc3)c(-c3ccc(F)cc3)nn2c1.Cl under target or system TESK1: %Inh reported as 5%

====

Listing of entries alongside the reported %Inh.
- System: DDR1
- condition_label: concentration: 1 μM,replicates: in singlicate; n = 1
API: value field is a number in %; no unit string.

                                   compound  endpoint  value_reported
0  COc1ccc(C[C@@H](CN)NC(=O)c2cc(Br)c(-c3ccnc4[nH]ccc34)s2)cc1.Cl.Cl      %Inh               2
1  Cc1ccc2c(-c3ccncc3)c(-c3ccc(F)cc3)nn2c1.Cl      %Inh              76
2  CCN(CC)CCOc1ccc(Nc2ncc3cc(-c4c(Cl)cccc4Cl)c(=O)n(C)c3n2)cc1      %Inh             100

The compound listed as CCN(CC)CCCCNc1ncc2cc(-c3c(Cl)cccc3Cl)c(NC(=O)NC(C)(C)C)nc2n1 shows %Inh equal to 99.7

Cl.Cl.Nc1nc(-c2ccc3c(N)n[nH]c3c2)cc(N2CCCC(NC(=O)c3ccccc3)C2)n1 (centres unmarked) has a reported %Inh of 26

Just so you know, measured %Inh for Nc1nc(Nc2ccccc2)cc(-c2ccc3c(N)n[nH]c3c2)n1 came out at 0

Lookup result for CNC(=O)c1ccccc1Sc1ccc2c(/C=C/c3ccccn3)n[nH]c2c1 ; measured %Inh: 18

Entry under test: C=CC(=O)Nc1cc2c(Nc3ccc(F)c(Cl)c3)ncnc2cc1OCCCN1CCOCC1 . Its %Inh was 71

Record summary for CN(C)CCOc1ccc(-c2cc(-c3c[nH]nc3-c3ccccn3)ccn2)cc1 : reported %Inh = 0

Record Cc1cc2cn[nH]c2cc1-c1cccc2c(N)c(C(N)=O)nnc12 . Reported %Inh: 0

====

- Tested on: RAF1
- condition_label: concentration: 1 μM,replicates: in singlicate; n = 1
endpoint: %Inh (%)
Enter your answer as a number in %; do not include the unit.

>>> df
                         structure_notation  endpoint  unit_of_measurement  value_reported
0  CCN(CC)CCOc1ccc(Nc2ncc3cc(-c4c(Cl)cccc4Cl)c(=O)n(C)c3n2)cc1      %Inh                    %              97
1  Cl.Cl.NC[C@H](Cc1ccc(C(F)(F)F)cc1)NC(=O)c1cc(Br)c(-c2ccnc3[nH]ccc23)s1      %Inh                    %              10

Then there is this compound:
Cc1ccc2c(-c3ccncc3)c(-c3ccc(F)cc3)nn2c1.Cl has a reported %Inh of 19

====

- System: CAMK1
- condition_label: concentration: 1 μM,replicates: in singlicate; n = 1
endpoint: %Inh (%)
Provide the reading as a plain figure in %.

Below, each entry is followed by its recorded %Inh result.
In [3]: df
Out[3]:
                                   compound  measurement_target  endpoint  unit_of_measurement  value_reported
0  C=CC(=O)Nc1cc2c(Nc3ccc(F)c(Cl)c3)ncnc2cc1OCCCN1CCOCC1               CAMK1      %Inh                    %              14
1  C[C@@H](Oc1cc(-c2cnn(C3CCNCC3)c2)cnc1N)c1c(Cl)ccc(F)c1Cl               CAMK1      %Inh                    %               0
2  Cl.Oc1cc(-c2nc(-c3ccccc3)[nH]c2-c2ccncc2)ccc1Cl               CAMK1      %Inh                    %               0
3  CC(C)N1C(=O)Cc2cc(Nc3ncc(C(F)(F)F)c(NCc4cccc(S(C)(=O)=O)c4)n3)ccc21               CAMK1      %Inh                    %               0

Notebook: Cl.Cl.NC[C@H](Cc1ccc(C(F)(F)F)cc1)NC(=O)c1cc(Br)c(-c2ccnc3[nH]ccc23)s1 , %Inh read as 22

Value of measured %Inh for the entry CCN(CC)CCOc1ccc(Nc2ncc3cc(-c4c(Cl)cccc4Cl)c(=O)n(C)c3n2)cc1 : 51

In plain terms, CN(C)CC(O)COc1ccc(Nc2nccc(-c3cnn4nc(N5CCOCC5)ccc34)n2)cc1 (stereo not shown) has a documented %Inh of 31

Looking up Cc1ccc2c(-c3ccncc3)c(-c3ccc(F)cc3)nn2c1.Cl , I see its %Inh listed as 0

The reported value for CCN(CC)CCCCNc1ncc2cc(-c3c(Cl)cccc3Cl)c(NC(=O)NC(C)(C)C)nc2n1 in terms of %Inh is 9

So for CNC(=O)c1ccccc1Sc1ccc2c(/C=C/c3ccccn3)n[nH]c2c1 , the logged %Inh turned out to be 9

====

- System: CDK3
- condition_label: concentration: 1 μM,replicates: in singlicate; n = 1
endpoint: %Inh

// Cl.Cl.NC[C@H](CC1CCCCC1)NC(=O)c1cc(Br)c(-c2ccnc3[nH]ccc23)s1 : %Inh value = 0%

%Inh for CC(C)N1C(=O)Cc2cc(Nc3ncc(C(F)(F)F)c(NCc4cccc(S(C)(=O)=O)c4)n3)ccc21 is 5%

Reported %Inh for Cl.Cl.NC[C@H](Cc1ccc(C(F)(F)F)cc1)NC(=O)c1cc(Br)c(-c2ccnc3[nH]ccc23)s1 was 0%

// C[C@@H](Oc1cc(-c2cnn(C3CCNCC3)c2)cnc1N)c1c(Cl)ccc(F)c1Cl : %Inh value = 12%
